Origin of measurements: the supplement of paper PMC8728848

Target: Fuc(b1-3)GlcNAc
Assay: glycan array binding signal (z-score within array); higher = stronger binding
Conditions: glycan notation: IUPAC condensed, linker removed
This is one part of a sample in which the strongest signals are shown more often than they occur.
PARAMETER_MEASURED: glycan array binding signal (z-score)

• DrGal3 (Danio rerio) (protein) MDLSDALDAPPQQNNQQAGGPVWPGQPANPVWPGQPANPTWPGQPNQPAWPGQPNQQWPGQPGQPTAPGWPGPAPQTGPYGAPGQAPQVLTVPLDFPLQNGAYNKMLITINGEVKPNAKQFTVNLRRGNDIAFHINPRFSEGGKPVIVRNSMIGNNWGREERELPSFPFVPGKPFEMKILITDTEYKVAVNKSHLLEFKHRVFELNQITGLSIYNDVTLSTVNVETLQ = -0.277

In the following, a different binder is considered.
// query Using the record for NcCVNHO (Neurospora crassa), Q7S6U4 (protein) MSFHVTAEDARIEVRDNRTILFARLRREDGEWNDASYELDQIIGNNDGHFQWGGQNFTETAEDIRFHPKEGAAEQPILRARLRDCNGEFHDRDVNLTEIVENVNGEFQAKF , report its glycan array binding signal (z-score).
// result -0.209
